meta.source: paper PMC5800871

Target: CYP2C9 (Homo sapiens)
Sequence (P11712 whole entry): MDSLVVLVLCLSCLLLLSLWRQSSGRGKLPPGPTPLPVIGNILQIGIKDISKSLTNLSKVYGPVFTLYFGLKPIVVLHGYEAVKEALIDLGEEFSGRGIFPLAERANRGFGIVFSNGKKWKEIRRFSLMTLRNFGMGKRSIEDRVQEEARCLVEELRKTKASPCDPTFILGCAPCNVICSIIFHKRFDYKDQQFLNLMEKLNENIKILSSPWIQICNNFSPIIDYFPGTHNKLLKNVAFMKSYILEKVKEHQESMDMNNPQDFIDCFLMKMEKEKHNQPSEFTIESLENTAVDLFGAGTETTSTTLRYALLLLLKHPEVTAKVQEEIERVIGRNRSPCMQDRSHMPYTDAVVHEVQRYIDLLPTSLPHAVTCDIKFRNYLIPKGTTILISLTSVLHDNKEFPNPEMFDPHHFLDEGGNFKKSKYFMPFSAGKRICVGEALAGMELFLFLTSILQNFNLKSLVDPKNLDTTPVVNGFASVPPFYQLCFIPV
Test: Cytochrome P450 inhibition assay, CYP2C9
Assay type: in vitro ADME
Conditions: CYP activity as % of control, 10 μM, human liver microsomes
quantity_kind: Cytochrome P450 inhibition (% of control) 2C9

So, C=CC(=O)Nc1cc(Nc2nccc(Nc3ccccc3P(C)(C)=O)n2)c(OC)cc1N(C)CCN(C)C ? Its Cytochrome P450 inhibition (% of control) 2C9 was 90 % of control

So, C=CC(=O)Nc1cc(Nc2nccc(Nc3ccccc3S(=O)(=O)C(C)C)n2)c(OC)cc1N(C)CCN(C)C ? Its Cytochrome P450 inhibition (% of control) 2C9 was 90 % of control

So, C=CC(=O)Nc1cc(Nc2ncc(I)c(Nc3ccccc3P(C)(C)=O)n2)c(OC)cc1N(C)CCN(C)C ? Its Cytochrome P450 inhibition (% of control) 2C9 was >100 % of control

So, C=CC(=O)Nc1cc(Nc2ncc(F)c(Nc3ccccc3P(C)(C)=O)n2)c(OC)cc1N(C)CCN(C)C ? Its Cytochrome P450 inhibition (% of control) 2C9 was >100 % of control

So, C=CC(=O)Nc1cc(Nc2nccc(Nc3ccccc3S(=O)(=O)N(C)C)n2)c(OC)cc1N(C)CCN(C)C ? Its Cytochrome P450 inhibition (% of control) 2C9 was 88 % of control

So, C=CC(=O)Nc1cc(Nc2ncc(F)c(Nc3ccccc3S(=O)(=O)C(C)C)n2)c(OC)cc1N(C)CCN(C)C ? Its Cytochrome P450 inhibition (% of control) 2C9 was 94 % of control

So, C=CC(=O)Nc1cc(Nc2ncc(Cl)c(Nc3ccccc3S(=O)(=O)C(C)C)n2)c(OC)cc1N(C)CCN(C)C ? Its Cytochrome P450 inhibition (% of control) 2C9 was 83 % of control

So, C=CC(=O)Nc1cc(Nc2ncc(Cl)c(Nc3ccccc3P(C)(C)=O)n2)c(OC)cc1N(C)CCN(C)C ? Its Cytochrome P450 inhibition (% of control) 2C9 was >100 % of control

So, C=CC(=O)Nc1cc(Nc2ncc(I)c(Nc3ccccc3S(=O)(=O)C(C)C)n2)c(OC)cc1N(C)CCN(C)C ? Its Cytochrome P450 inhibition (% of control) 2C9 was 88 % of control
